Target: recombinant, phosphorylated p38 MAPK gamma (MAPK12:Millipore) (Homo sapiens, UniProt P53778)
Construct: purchased Millipore
Test: Enzyme inhibition assay (FRET, Z-LYTE), p38 MAPK gamma
Format: biochemical
Conditions: read-out: IC50 values P38γ enzyme
pIC50: −log10 of the molar value.
Would you mind telling me the reported pIC50 of each entry?

Use the examples below as a reference point.
Cc1ccc(-n2nc(C(C)(C)C)cc2NC(=O)Nc2ccc(OCc3ccnc(NC(=O)N4CCOCC4)c3)c3ccccc23)cc1 : > 6.30
COCCN1CCN(CC(=O)Nc2cc(COc3ccc(NC(=O)Nc4cc(C(C)(C)C)nn4-c4ccc(C)cc4)c4ccccc34)ccn2)CC1 : > 6.30
COCCSCC(=O)Nc1cc(COc2ccc(NC(=O)Nc3cc(C(C)(C)C)nn3-c3ccc(C)cc3)c3ccccc23)ccn1 : > 6.30

Look up pIC50 for the entries below, preserving their order.
1. COCC(=O)Nc1cc(COc2ccc(NC(=O)Nc3cc(C(C)(C)C)nn3-c3ccc(CO)cc3)c3ccccc23)ccn1
2. COCC(=O)Nc1cc(CC(C)Oc2ccc(NC(=O)Nc3cc(C(C)(C)C)nn3-c3ccc(C)cc3)c3ccccc23)ccn1 (stereo not shown)
3. COCC(=O)Nc1cc(OCCc2ccc(NC(=O)Nc3cc(C(C)(C)C)nn3-c3ccc(C)cc3)c3ccccc23)ccn1
4. COCCNCC(=O)Nc1cc(COc2ccc(NC(=O)Nc3cc(C(C)(C)C)nn3-c3ccc(C)cc3)c3ccccc23)ccn1

Ans:
1: > 6.30; 2: < 5.30; 3: > 5.30; 4: > 6.30

====

Test system: Differentiated U937 cells
Test: MTT assay (loss of cell viability)
Assay type: cell-based, human
Details: loss of cell viability; 4 hr; 10 ug/ml
measuredEndpoint: MTT 4 hr

Study these solved cases before continuing.
Cc1ccc(-n2nc(C(C)(C)C)cc2NC(=O)Nc2ccc(OCc3ccnc(NC(=O)CCCN(C)C)c3)c3ccccc23)cc1 [Example 16] : + (+ >30% at 10 ug/ml)
Cc1ccc(-n2nc(C(C)(C)C)cc2NC(=O)Nc2ccc(OCc3ccnc(NC(=O)CN4CCN(C)CC4)c3)c3ccccc23)cc1 [Example 23] : + (+ >30% at 10 ug/ml)
Cc1ccc(-n2nc(C(C)(C)C)cc2NC(=O)Nc2ccc(OCc3ccnc(NC(=O)CSCCN4CCOCC4)c3)c3ccccc23)cc1 [Example 31] : − (− <30%)
Cc1ccc(-n2nc(C(C)(C)C)cc2NC(=O)Nc2ccc(OCc3ccnc(NC(=O)C4CCOCC4)c3)c3ccccc23)cc1 [Example 3] : − (− <30%)

For every listed record, write down its MTT 4 hr.
1. COCCNCC(=O)Nc1cc(COc2ccc(NC(=O)Nc3cc(C(C)(C)C)nn3-c3ccc(C)cc3)c3ccccc23)ccn1 [Example 25]
2. Cc1ccc(-n2nc(C(C)(C)C)cc2NC(=O)Nc2ccc(Oc3ccnc(NC(=O)CS(C)(=O)=O)c3)c3ccccc23)cc1 [Example 51]
3. CNCC(=O)Nc1cc(COc2ccc(NC(=O)Nc3cc(C(C)(C)C)nn3-c3ccc(C)cc3)c3ccccc23)ccn1 [Example 27]

Ans:
1: − (− <30%); 2: − (− <30%); 3: − (− <30%)

Field: MTT 4 hr. Fill in for each record below.
1. COCC(=O)Nc1cnccc1COc1ccc(NC(=O)Nc2cc(C(C)(C)C)nn2-c2ccc(C)cc2)c2ccccc12 [Example 35]
2. COCC(=O)Nc1cc(C(C)(C)COc2ccc(NC(=O)Nc3cc(C(C)(C)C)nn3-c3ccc(C)cc3)c3ccccc23)ccn1 [Example 48]

Ans:
1. − (− <30%)
2. − (− <30%)

Batch: MTT 4 hr for all items listed.
1. Cc1ccc(-n2nc(C(C)(C)C)cc2NC(=O)Nc2ccc(OCc3ccnc(NC(=O)CS(=O)(=O)CCN4CCOCC4)c3)c3ccccc23)cc1 [Example 32]
2. COCC(=O)Nc1cc(COc2ccc(NC(=O)Nc3cc(C(C)(C)C)nn3-c3ccc(CO)cc3)c3ccccc23)ccn1 [Example 49]

Ans:
1: − (− <30%); 2: − (− <30%)

====

Test system: Differentiated U937 cells
Test: MTT assay (loss of cell viability)
Format: cell-based, human
Settings: loss of cell viability; 4 hr; 10 ug/ml
measuredEndpoint: MTT 4 hr

Cc1ccc(-n2nc(C(C)(C)C)cc2NC(=O)Nc2ccc(OCc3ccnc(NC(=O)CCS(C)(=O)=O)c3)c3ccccc23)cc1 : − (− <30%)
COCCN1CCN(CC(=O)Nc2cc(COc3ccc(NC(=O)Nc4cc(C(C)(C)C)nn4-c4ccc(C)cc4)c4ccccc34)ccn2)CC1 : − (− <30%)
COCC(=O)Nc1cc(COc2ccc(NC(=O)Nc3cc(C(C)(C)C)nn3-c3ccc(C)cc3)c3ccccc23)ccn1 : − (− <30%)

====

Target: recombinant, phosphorylated p38 MAPK gamma (MAPK12:Millipore) (Homo sapiens, UniProt P53778)
Construct: purchased Millipore
Sequence (P53778 1-367): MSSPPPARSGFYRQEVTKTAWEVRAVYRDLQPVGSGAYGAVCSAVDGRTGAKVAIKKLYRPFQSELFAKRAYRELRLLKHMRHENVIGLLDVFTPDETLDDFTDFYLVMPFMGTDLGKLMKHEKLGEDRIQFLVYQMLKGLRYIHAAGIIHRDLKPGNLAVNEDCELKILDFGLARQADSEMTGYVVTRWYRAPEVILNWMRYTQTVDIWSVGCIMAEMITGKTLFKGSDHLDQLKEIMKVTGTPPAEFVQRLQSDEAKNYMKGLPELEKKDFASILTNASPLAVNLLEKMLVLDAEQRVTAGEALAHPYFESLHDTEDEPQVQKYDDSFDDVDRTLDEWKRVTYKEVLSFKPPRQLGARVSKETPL
Test: Enzyme inhibition assay (FRET, Z-LYTE), p38 MAPK gamma
Type: biochemical
Details: read-out: IC50 values P38γ enzyme
pIC50: −log10 of the molar value.
Kindly supply the reported pIC50 values for the records listed here.

COCC(=O)Nc1cnccc1COc1ccc(NC(=O)Nc2cc(C(C)(C)C)nn2-c2ccc(C)cc2)c2ccccc12 [Example 35] : < 5.30

List reported pIC50 for each of these molecules:
1. CNCC(=O)Nc1cc(COc2ccc(NC(=O)Nc3cc(C(C)(C)C)nn3-c3ccc(C)cc3)c3ccccc23)ccn1 [Example 27]
2. Cc1ccc(-n2nc(C(C)(C)C)cc2NC(=O)Nc2ccc(OCc3ccnc(NC(=O)CO)c3)c3ccccc23)cc1 [Example 7]
3. Cc1ccc(-n2nc(C(C)(C)C)cc2NC(=O)Nc2ccc(OCc3ccnc(NC(=O)CN4CCCC4)c3)c3ccccc23)cc1 [Example 22]

Ans:
1. > 6.30
2. > 6.30
3. > 6.30

====

System: Differentiated U937 cells
Experiment: MTT assay (loss of cell viability)
Type: cell-based, human
Conditions: loss of cell viability; 24 hr; 10 ug/ml
measuredEndpoint: MTT 24 hr

COCC(=O)Nc1cc(CC(C)Oc2ccc(NC(=O)Nc3cc(C(C)(C)C)nn3-c3ccc(C)cc3)c3ccccc23)ccn1 (centres unmarked) : − (− <30%)
Cc1ccc(-n2nc(C(C)(C)C)cc2NC(=O)Nc2ccc(OCc3ccnc(NC(=O)N4CCN(C)CC4)c3)c3ccccc23)cc1 : − (− <30%)
Cc1ccc(-n2nc(C(C)(C)C)cc2NC(=O)Nc2ccc(OCc3ccnc(NC(=O)CS(=O)(=O)CCN4CCOCC4)c3)c3ccccc23)cc1 : − (− <30%)
COCC(=O)Nc1cc(COc2ccc(NC(=O)Nc3cc(C(C)(C)C)nn3-c3ccc(CO)cc3)c3ccccc23)ccn1 : + (+ >30% at 10 ug/ml)

Give me MTT 24 hr for each of these compounds, listed below.
1. Cc1ccc(-n2nc(C(C)(C)C)cc2NC(=O)Nc2ccc(OCc3ccnc(NC(=O)CCCN(C)C)c3)c3ccccc23)cc1
2. Cc1ccc(-n2nc(C(C)(C)C)cc2NC(=O)Nc2ccc(OCc3ccnc(NC(=O)CO)c3)c3ccccc23)cc1
3. Cc1ccc(-n2nc(C(C)(C)C)cc2NC(=O)Nc2ccc(OCc3ccnc(NC(=O)[C@@H]4COCCN4)c3)c3ccccc23)cc1
4. COCC(=O)Nc1nccc(COc2ccc(NC(=O)Nc3cc(C(C)(C)C)nn3-c3ccc(C)cc3)c3ccccc23)n1

Ans:
["+ (+ >30% at 10 ug/ml)", "+ (+ >30% at 10 ug/ml)", "− (− <30%)", "− (− <30%)"]

====

I'd be grateful if you could share measured pIC50 for these entries.
Target: recombinant, phosphorylated p38 MAPK gamma (MAPK12:Millipore) (Homo sapiens, UniProt P53778)
Sequence (P53778 1-367): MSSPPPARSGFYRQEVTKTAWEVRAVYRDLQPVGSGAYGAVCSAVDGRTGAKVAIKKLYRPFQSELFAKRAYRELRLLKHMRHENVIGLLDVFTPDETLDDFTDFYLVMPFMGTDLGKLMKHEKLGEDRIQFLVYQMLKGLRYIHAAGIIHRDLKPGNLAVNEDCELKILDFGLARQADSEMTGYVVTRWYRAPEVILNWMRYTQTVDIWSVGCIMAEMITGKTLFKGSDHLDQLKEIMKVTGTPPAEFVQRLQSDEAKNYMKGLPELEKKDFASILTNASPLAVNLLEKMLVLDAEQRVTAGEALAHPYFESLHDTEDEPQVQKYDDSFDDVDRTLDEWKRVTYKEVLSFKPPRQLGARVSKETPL
Assay: Enzyme inhibition assay (FRET, Z-LYTE), p38 MAPK gamma
Conditions: read-out: IC50 values P38γ enzyme
pIC50: −log10 of the molar value.

Cc1ccc(-n2nc(C(C)(C)C)cc2NC(=O)Nc2ccc(OCc3ccnc(NC(=O)CCCN(C)C)c3)c3ccccc23)cc1 [Example 16] : > 6.30
CNC(=O)Nc1cnccc1COc1ccc(NC(=O)Nc2cc(C(C)(C)C)nn2-c2ccc(C)cc2)c2ccccc12 [Example 34] : > 5.30
COc1ccc(CN(C)CC(=O)Nc2cc(COc3ccc(NC(=O)Nc4cc(C(C)(C)C)nn4-c4ccc(C)cc4)c4ccccc34)ccn2)cc1 [Example 28] : > 5.30
Cc1ccc(-n2nc(C(C)(C)C)cc2NC(=O)Nc2ccc(OCc3ccnc(NC(=O)N4CCN(C)CC4)c3)c3ccccc23)cc1 [Example 12] : > 6.30
Cc1ccc(-n2nc(C(C)(C)C)cc2NC(=O)Nc2ccc(OCc3ccnc(NC(=O)CCS(C)(=O)=O)c3)c3ccccc23)cc1 [Example 17] : > 6.30

Now let's try a different one.
Q: I am curious: what pIC50 value has been reported for COCCOCCSCC(=O)Nc1cc(COc2ccc(NC(=O)Nc3cc(C(C)(C)C)nn3-c3ccc(C)cc3)c3ccccc23)ccn1 [Example 30] ?
Ans: > 6.30

Reference for the values: patent US8299073B2
